target: Prostaglandin G/H synthase 1 (Ovis aries, UniProt P05979); test: Inhibition of ovine COX1 assessed as production of PGF2-alpha preincubated with compound followed by the addition of 5 uM arachidonic acid as substrate by enzyme immunoassay
Sequence (P05979 whole entry): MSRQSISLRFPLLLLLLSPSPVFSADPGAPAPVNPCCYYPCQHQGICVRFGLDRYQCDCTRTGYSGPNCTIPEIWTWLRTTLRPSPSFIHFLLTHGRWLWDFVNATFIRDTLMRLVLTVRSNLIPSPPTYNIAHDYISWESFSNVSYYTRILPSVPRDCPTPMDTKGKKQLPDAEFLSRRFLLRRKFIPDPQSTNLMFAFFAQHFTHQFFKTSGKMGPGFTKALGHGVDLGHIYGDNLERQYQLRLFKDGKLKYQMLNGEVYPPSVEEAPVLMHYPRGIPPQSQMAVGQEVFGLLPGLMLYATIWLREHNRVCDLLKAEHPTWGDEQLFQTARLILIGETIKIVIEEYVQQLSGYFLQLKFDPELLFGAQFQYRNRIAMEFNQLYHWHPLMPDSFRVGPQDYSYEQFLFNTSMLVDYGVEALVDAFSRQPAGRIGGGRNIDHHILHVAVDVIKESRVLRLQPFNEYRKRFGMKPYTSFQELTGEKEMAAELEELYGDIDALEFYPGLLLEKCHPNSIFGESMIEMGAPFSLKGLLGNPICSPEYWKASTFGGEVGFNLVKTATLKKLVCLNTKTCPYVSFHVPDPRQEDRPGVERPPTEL
experimentalReadout: IC50 (nM)

[[record]]
molecule = "CCCCCCNC(=O)Oc1ccc(-c2ccc(C(C)C(=O)O)cc2F)cc1 (racemic)"
targetdesc = "Prostaglandin G/H synthase 1 (Ovis aries, UniProt P05979)"
experimentalreadout = "IC50"
boundsign = ">"
measuredresult = 100000

[[record]]
molecule = "CCCCCCNC(=O)Oc1cccc(-c2ccc(C(C)C(=O)OC)cc2F)c1 (racemic)"
targetdesc = "Prostaglandin G/H synthase 1 (Ovis aries, UniProt P05979)"
experimentalreadout = "IC50"
boundsign = ">"
measuredresult = 100000

[[record]]
molecule = "CCCNC(=O)Oc1cccc(-c2ccc(C(C)C(=O)O)cc2F)c1 (racemic)"
targetdesc = "Prostaglandin G/H synthase 1 (Ovis aries, UniProt P05979)"
experimentalreadout = "IC50"
boundsign = "="
measuredresult = 1650

[[record]]
molecule = "CCCCCCNC(=O)Oc1cccc(-c2ccc(C(C)C(=O)O)cc2O)c1 (racemic)"
targetdesc = "Prostaglandin G/H synthase 1 (Ovis aries, UniProt P05979)"
experimentalreadout = "IC50"
boundsign = "="
measuredresult = 650

[[record]]
molecule = "CCCCCCNC(=O)Oc1cccc(-c2ccc(C(C)C(=O)O)cc2C(F)(F)F)c1 (racemic)"
targetdesc = "Prostaglandin G/H synthase 1 (Ovis aries, UniProt P05979)"
experimentalreadout = "IC50"
boundsign = "="
measuredresult = 10

[[record]]
molecule = "CCCCCCNC(=O)Nc1cccc(-c2ccc(C(C)C(=O)O)cc2F)c1 (racemic)"
targetdesc = "Prostaglandin G/H synthase 1 (Ovis aries, UniProt P05979)"
experimentalreadout = "IC50"
boundsign = "="
measuredresult = 14

[[record]]
molecule = "CCCCCCNC(=O)Oc1cccc(-c2ccc(C(=O)O)cc2F)c1"
targetdesc = "Prostaglandin G/H synthase 1 (Ovis aries, UniProt P05979)"
experimentalreadout = "IC50"
boundsign = ">"
measuredresult = 100000

[[record]]
molecule = "CCCCCCNC(=O)Oc1cccc(-c2ccc(C(C)C(=O)O)cc2C)c1 (racemic)"
targetdesc = "Prostaglandin G/H synthase 1 (Ovis aries, UniProt P05979)"
experimentalreadout = "IC50"
boundsign = "="
measuredresult = 11

[[record]]
molecule = "CCCCCCNC(=O)Oc1cccc(-c2ccc(C)cc2F)c1"
targetdesc = "Prostaglandin G/H synthase 1 (Ovis aries, UniProt P05979)"
experimentalreadout = "IC50"
boundsign = ">"
measuredresult = 100000

[[record]]
molecule = "CCCCCCNC(=O)Oc1cccc(-c2ccc([C@H](C)C(=O)O)cc2F)c1"
targetdesc = "Prostaglandin G/H synthase 1 (Ovis aries, UniProt P05979)"
experimentalreadout = "IC50"
boundsign = "="
measuredresult = 0.29

[[record]]
molecule = "CC(C(=O)O)c1ccc(-c2cccc(OC(=O)NC3CC3)c2)c(F)c1 (racemic)"
targetdesc = "Prostaglandin G/H synthase 1 (Ovis aries, UniProt P05979)"
experimentalreadout = "IC50"
boundsign = "="
measuredresult = 5400

[[record]]
molecule = "CCNC(=O)Oc1cccc(-c2ccc(C(C)C(=O)O)cc2F)c1 (racemic)"
targetdesc = "Prostaglandin G/H synthase 1 (Ovis aries, UniProt P05979)"
experimentalreadout = "IC50"
boundsign = "="
measuredresult = 2100

[[record]]
molecule = "CC(C(=O)O)c1ccc(-c2cccc(OC(=O)Nc3ccccc3)c2)c(F)c1 (racemic)"
targetdesc = "Prostaglandin G/H synthase 1 (Ovis aries, UniProt P05979)"
experimentalreadout = "IC50"
boundsign = "="
measuredresult = 270

[[record]]
molecule = "CCCCCCNC(=O)Oc1cccc(-c2ccc(C(C)C(=O)O)cc2)c1 (racemic)"
targetdesc = "Prostaglandin G/H synthase 1 (Ovis aries, UniProt P05979)"
experimentalreadout = "IC50"
boundsign = "="
measuredresult = 54

[[record]]
molecule = "NC(=O)c1cccc(-c2cccc(OC(=O)NC3CCCCC3)c2)c1"
targetdesc = "Prostaglandin G/H synthase 1 (Ovis aries, UniProt P05979)"
experimentalreadout = "IC50"
boundsign = ">"
measuredresult = 100000

[[record]]
molecule = "CC(C(=O)O)c1ccc(-c2cccc(OC(=O)NC3CCC3)c2)c(F)c1 (racemic)"
targetdesc = "Prostaglandin G/H synthase 1 (Ovis aries, UniProt P05979)"
experimentalreadout = "IC50"
boundsign = "="
measuredresult = 720

[[record]]
molecule = "CCCCCCNC(=O)Oc1cccc(-c2ccc(C(C)C(=O)O)cc2Cl)c1 (racemic)"
targetdesc = "Prostaglandin G/H synthase 1 (Ovis aries, UniProt P05979)"
experimentalreadout = "IC50"
boundsign = "="
measuredresult = 9

